# experimentSummary: MRTlast in Sprague-Dawley rat at 1 mg/kg, iv measured upto 24 hrs by LC-MS/MS analysis
# Assay type: ADME, organism-based
# conditionsUsed: in vivo
measurementKind: MRT last at 24 h
A complete answer gives the number and then names the unit.

Asked: Please supply the value of reported MRT last at 24 h for the item C=CC(=O)Nc1ccccc1Nc1ccc2c(C(=O)c3cc(OC)cc(OC)c3)c[nH]c2n1
Given back: 46.2 min

----------
# experimentSummary: Metabolic stability in human liver microsomes assessed as half life at 1 uM incubated for 60 mins by LC-MS/MS analysis
# Assay type: ADME, Microsome
Below, each of the molecules is paired with its reported half-life at 1 µM value.
Give the number; min is assumed, so skip it.

C=CC(=O)Nc1ccccc1Nc1ccc2c(C(=O)c3cc(OC)cc(OC)c3)c[nH]c2n1 = 62

Asked: Please supply the value of reported half-life at 1 µM for the item C=CC(=O)Nc1cccc(C)c1Nc1ncc2cc(-c3c(Cl)c(OC)cc(OC)c3Cl)ccc2n1
Given back: 46.7
